biological target: ATP-dependent translocase ABCB1 (Homo sapiens, UniProt P08183); experiment: Pgp transport inhibitory activity at 10 uM was measured by JC-1 accumulation assay method using JC-1 as substrate; assay type: functional
Sequence (P08183 whole entry): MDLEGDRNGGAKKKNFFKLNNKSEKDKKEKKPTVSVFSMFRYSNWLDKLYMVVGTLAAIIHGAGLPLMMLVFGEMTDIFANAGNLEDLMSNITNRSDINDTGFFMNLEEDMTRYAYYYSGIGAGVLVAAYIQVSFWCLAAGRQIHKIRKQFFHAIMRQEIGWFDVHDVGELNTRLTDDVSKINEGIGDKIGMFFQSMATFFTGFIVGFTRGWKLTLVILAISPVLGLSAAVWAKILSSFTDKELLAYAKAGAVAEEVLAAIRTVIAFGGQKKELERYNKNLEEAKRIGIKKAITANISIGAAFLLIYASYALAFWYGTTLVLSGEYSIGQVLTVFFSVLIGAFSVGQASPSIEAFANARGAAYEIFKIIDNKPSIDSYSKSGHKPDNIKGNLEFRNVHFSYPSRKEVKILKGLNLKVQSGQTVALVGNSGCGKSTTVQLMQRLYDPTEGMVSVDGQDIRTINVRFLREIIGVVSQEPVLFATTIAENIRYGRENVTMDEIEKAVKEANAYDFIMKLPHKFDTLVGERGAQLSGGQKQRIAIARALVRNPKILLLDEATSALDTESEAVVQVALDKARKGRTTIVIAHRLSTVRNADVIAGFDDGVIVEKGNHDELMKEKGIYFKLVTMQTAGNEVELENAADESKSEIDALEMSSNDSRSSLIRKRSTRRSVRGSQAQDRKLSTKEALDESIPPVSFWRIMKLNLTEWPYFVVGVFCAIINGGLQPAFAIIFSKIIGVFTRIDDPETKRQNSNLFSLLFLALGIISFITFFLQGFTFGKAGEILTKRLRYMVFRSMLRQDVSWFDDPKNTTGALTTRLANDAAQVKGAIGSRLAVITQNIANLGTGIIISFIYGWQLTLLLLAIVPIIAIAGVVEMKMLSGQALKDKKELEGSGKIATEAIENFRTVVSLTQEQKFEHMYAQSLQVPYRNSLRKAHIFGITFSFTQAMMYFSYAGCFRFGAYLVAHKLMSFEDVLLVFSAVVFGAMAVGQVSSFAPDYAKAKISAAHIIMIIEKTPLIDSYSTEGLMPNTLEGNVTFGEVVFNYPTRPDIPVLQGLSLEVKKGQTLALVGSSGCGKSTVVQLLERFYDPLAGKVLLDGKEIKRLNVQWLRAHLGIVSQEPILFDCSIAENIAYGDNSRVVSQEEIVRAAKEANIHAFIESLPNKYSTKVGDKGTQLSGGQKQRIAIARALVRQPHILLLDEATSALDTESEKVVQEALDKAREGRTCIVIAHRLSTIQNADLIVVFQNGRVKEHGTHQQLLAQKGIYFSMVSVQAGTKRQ
QUANTITY KIND: Relative JC-1 accumulation

The following compounds have reported results that may help.
COMPOUND: CCOC(=O)COc1cc(OCC(=O)N2CCN(Cc3ccc(OC)c(OC)c3OC)CC2)c2c(=O)cc(-c3ccc(OC)c(OCC(=O)OCC)c3)oc2c1
Relative JC-1 accumulation: 59
--
COMPOUND: COc1ccc(-c2cc(=O)c3c(O)cc(OCC(=O)N4CCN(Cc5ccc(OC)c(OC)c5OC)CC4)cc3o2)cc1O
Relative JC-1 accumulation: 30
--
COMPOUND: CCOC(=O)COc1cc(O)c2c(=O)cc(-c3ccc(OC)c(OCC(=O)N4CCN(Cc5cc(OC)c(OC)c(OC)c5)CC4)c3)oc2c1
Relative JC-1 accumulation: 55
--
COMPOUND: CCOC(=O)COc1cc(-c2cc(=O)c3c(O)cc(OCC(=O)N4CCN(Cc5ccccc5)CC4)cc3o2)ccc1OC
Relative JC-1 accumulation: 38
--
COMPOUND: COc1ccc(C2CC(=O)c3c(O)cc(OCC(=O)N4CCN(Cc5ccc(OC)c(OC)c5OC)CC4)cc3O2)cc1O (configuration not stated)
Relative JC-1 accumulation: 69

Entry under test: COc1ccc(C2CC(=O)c3c(O)cc(OCC(=O)N4CCN(Cc5cccc(OC)c5OC)CC4)cc3O2)cc1O (configuration not stated) . Its Relative JC-1 accumulation was 6

Entry under test: COc1ccc(-c2cc(=O)c3c(O)cc(O[C@@H]4O[C@H](CO)[C@H](O)[C@@H](O)[C@H]4O)cc3o2)cc1OCC(=O)N1CCN(Cc2ccc(OC)c(OC)c2OC)CC1 . Its Relative JC-1 accumulation was 0

---

Relative JC-1 accumulation reference
target: ATP-dependent translocase ABCB1 (Homo sapiens, UniProt P08183); assay: Pgp transport inhibitory activity at 1 uM was measured by JC-1 accumulation assay method using JC-1 as substrate; format: functional
Lab note: record just the number, no unit beside it.

The following molecules have reported results that may help.
MOLECULE: COc1ccc(C2CC(=O)c3c(O)cc(OCC(=O)N4CCN(Cc5ccc(OC)c(OC)c5OC)CC4)cc3O2)cc1OC(C)=O (stereo not drawn)
SYSTEM UNDER TEST: ATP-dependent translocase ABCB1 (Homo sapiens, UniProt P08183)
RECORDED RESULT: 33
--
MOLECULE: CCOC(=O)COc1cc(O)c2c(=O)cc(-c3ccc(OC)c(OCC(=O)N4CCN(Cc5ccccc5Cl)CC4)c3)oc2c1
SYSTEM UNDER TEST: ATP-dependent translocase ABCB1 (Homo sapiens, UniProt P08183)
RECORDED RESULT: 7

Moving on to the next molecule.
Entry under test: CCOC(=O)COc1cc(-c2cc(=O)c3c(O)cc(OCC(=O)N4CCN(Cc5cc(OC)c(OC)c(OC)c5)CC4)cc3o2)ccc1OC . Its Relative JC-1 accumulation was 2
